Reported DC50 values for the following molecules.
- Target or system: KRAS G12D (Homo sapiens, UniProt P01116, G12D)
- Construct: AsPc-1-KRAS (G12D)-HiBit-KI cell (Pharmaron); host or cells: AsPc-1-KRAS (G12D)-HiBit-KI cells (HiBiT knock-in at the endogenous KRAS locus)
- Sequence (P01116 1-188 isoform P01116-2 G12D): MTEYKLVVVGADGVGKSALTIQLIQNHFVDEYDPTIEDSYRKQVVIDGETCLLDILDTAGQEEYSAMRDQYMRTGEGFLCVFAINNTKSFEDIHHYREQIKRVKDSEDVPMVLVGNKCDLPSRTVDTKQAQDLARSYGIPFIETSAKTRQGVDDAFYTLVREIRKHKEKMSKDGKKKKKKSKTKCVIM
- Experiment: KRAS G12D HiBit assay
- Assay type: cell-based
- Condition parameters: AsPc-1-KRAS (G12D)-HiBit-KI cell, compound treatment for 24 hours, absolute DC50; class symbols

[[record]]
molecule = "Cn1c(=O)n(C2CCC(=O)NC2=O)c2ccc(C3CCN(CC4(F)CCN(C(=O)OC[C@@H]5CC[C@]6(COc7nc(N8CCC[C@@](C)(O)C8)c8cnc(-c9cc(O)cc%10ccc(F)cc9%10)c(F)c8n7)CCCN56)CC4)CC3)cc21 (some centres unmarked)"
observed_value = "< 100 nM"

[[record]]
molecule = "C#Cc1c(F)ccc2cccc(-c3ncc4c(N5CCC[C@@](C)(O)C5)nc(OC[C@@]56CCCN5[C@H](COC(=O)NCCOCCOCCOCCOc5ccc7c(c5)n(C)c(=O)n7C5CCC(=O)NC5=O)CC6)nc4c3F)c12 (some centres unmarked)"
observed_value = "> 300 nM"

[[record]]
molecule = "CCc1c(F)ccc2cccc(-c3ncc4c(N5CCC[C@@](C)(O)C5)nc(OC[C@@]56CCCN5[C@H](COC(=O)N5CCC(CN7CCC(c8ccc9c(c8)n(C)c(=O)n9C8CCC(=O)NC8=O)CC7)CC5)CC6)nc4c3F)c12 (some centres unmarked)"
observed_value = "< 100 nM"


Task: Determine from records and report DC50 for C#Cc1c(F)ccc2cc(O)cc(-c3ncc4c(N5CCC[C@@](C)(O)C5)nc(OC[C@@]56CCCN5[C@H](COC(=O)N5CCC7(CC5)CC(N5CCC(c8cccc9c8n(C)c(=O)n9C8CCC(=O)NC8=O)CC5)C7)CC6)nc4c3F)c12 (some centres unmarked)
Output: < 100 nM

Task: Report DC50, nothing else, for this molecule: C#Cc1c(F)ccc2cc(O)cc(-c3ncc4c(N5CCC[C@@](C)(O)C5)nc(OCC5(CN6CCN(C7CCN(c8ccc9c(c8)n(C)c(=O)n9C8CCC(=O)NC8=O)CC7)CC6)CC5)nc4c3F)c12 (some centres unmarked)
Output: < 100 nM

Task: Give the reported value of DC50 for this record: C#Cc1c(F)ccc2cc(O)cc(-c3ncc4c(N5CCC[C@@](C)(O)C5)nc(OC[C@@]56CCCN5[C@H](COC(=O)N5CCC(N7CC(N8CCC(c9ccc%10c(c9)n(C)c(=O)n%10C9CCC(=O)NC9=O)CC8)C7)CC5)CC6)nc4c3F)c12 (some centres unmarked)
Output: < 100 nM

Task: Provide DC50 value for the following molecule: CCc1c(F)ccc2cc(O)cc(-c3ncc4c(N5CCC[C@@](C)(O)C5)nc(OC[C@@]56CCCN5[C@H](COC(=O)N5CCC(CN7CCC(c8ccc9c(c8)n(C)c(=O)n9C8CCC(=O)NC8=O)C7)CC5)CC6)nc4c3F)c12 (some centres unmarked)
Output: < 100 nM

Task: Assign DC50 to the following record: CCc1c(F)ccc2cc(O)cc(-c3ncc4c(N5CC[C@@H](O)C5)nc(OC[C@@]56CCCN5[C@H](COC(=O)N5CCC7(CC5)CC(N5CCC(c8ccc9c(c8)n(C)c(=O)n9C8CCC(=O)NC8=O)CC5)C7)CC6)nc4c3F)c12 (some centres unmarked)
Output: < 100 nM

* * *

Reported DC50 values follow for various molecules
- Target or system: KRAS G12V (Homo sapiens, UniProt P01116, G12V)
- Construct: SW620-KRAS (G12V)-HiBit-KI cell (Pharmaron); host or cells: SW620-KRAS (G12V)-HiBit-KI cells (HiBiT knock-in at the endogenous KRAS locus)
- Sequence (P01116 1-188 isoform P01116-2 G12V): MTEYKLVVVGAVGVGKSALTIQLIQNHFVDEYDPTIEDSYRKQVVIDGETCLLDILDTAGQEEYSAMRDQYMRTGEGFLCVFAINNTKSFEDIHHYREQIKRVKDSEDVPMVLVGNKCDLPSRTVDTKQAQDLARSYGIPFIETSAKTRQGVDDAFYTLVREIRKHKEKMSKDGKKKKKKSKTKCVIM
- Experiment: KRAS G12V HiBit assay
- Format: cell-based
- Condition parameters: SW620-KRAS (G12V)-HiBit-KI cells, compound treatment for 24 hours, class symbols

Task: Annotate the molecule C#Cc1c(F)ccc2cc(O)cc(-c3ncc4c(N5CCC[C@@](C)(O)C5)nc(OC[C@@]56CCCN5[C@H](COC(=O)N5CCC7(CCC7CN7CCC(c8ccc9c(c8)n(C)c(=O)n9C8CCC(=O)NC8=O)CC7)CC5)CC6)nc4c3F)c12 (some centres unmarked) [Compound 327] with its measured DC50.
Output: > 100 nM

Task: Indicate the recorded DC50 value for this molecule: CCc1c(F)ccc2cc(O)cc(-c3ncc4c(N5CCC[C@@](C)(O)C5)nc(OC[C@@]56CCCN5[C@H](COC(=O)N5CCC(CN7CCC(c8ccc9c(c8)n(C)c(=O)n9C8CCC(=O)NC8=O)C7)CC5)CC6)nc4c3F)c12 (some centres unmarked) [Compound 435]
Output: 10 to 100 nM

* * *

- Target or system: KRAS G12V (Homo sapiens, UniProt P01116, G12V)
- Construct: SW620-KRAS (G12V)-HiBit-KI cell (Pharmaron); host or cells: SW620-KRAS (G12V)-HiBit-KI cells (HiBiT knock-in at the endogenous KRAS locus)
- Experiment: KRAS G12V HiBit assay
- Format: cell-based
- Condition parameters: SW620-KRAS (G12V)-HiBit-KI cells, compound treatment for 24 hours, class symbols
Below, each entry is listed with its recorded DC50.

Worked examples, 5 compounds total:
[[record]]
compound = "C#Cc1c(F)ccc2cc(O)cc(-c3ncc4c(N5CCC[C@@](C)(O)C5)nc(OC[C@@]56CCCN5[C@H](COC(=O)N5CCC7(CC5)CC(N5CCC(c8ccc9c(c8)n(C)c(=O)n9C8CCC(=O)NC8=O)CC5)C7)CC6)nc4c3F)c12 (stereo partly drawn)"
quantity_name = "DC50"
observed_value = "< 10 nM"

[[record]]
compound = "CCc1c(F)ccc2cc(O)cc(-c3ncc4c(N5CCC[C@@](C)(O)C5)nc(OC[C@]56CCCN5[C@H](COC(=O)NC5CCCN(c7ccc8c(c7)n(C)c(=O)n8C7CCC(=O)NC7=O)C5)CC6)nc4c3F)c12 (stereo partly drawn)"
quantity_name = "DC50"
observed_value = "10 to 100 nM"

[[record]]
compound = "CCc1c(F)ccc2cc(O)cc(-c3ncc4c(N5CC[C@@H](O)C5)nc(OC[C@@]56CCCN5[C@H](COC(=O)N5CCC7(CC5)CC(N5CCC(c8ccc9c(c8)n(C)c(=O)n9C8CCC(=O)NC8=O)CC5)C7)CC6)nc4c3F)c12 (stereo partly drawn)"
quantity_name = "DC50"
observed_value = "< 10 nM"

[[record]]
compound = "CCc1c(F)ccc2cc(O)cc(-c3ncc4c(N5CCC(O)CC5)nc(OC[C@@]56CCCN5[C@H](COC(=O)N5CCC7(CC5)CC(N5CCC(c8ccc9c(c8)n(C)c(=O)n9C8CCC(=O)NC8=O)CC5)C7)CC6)nc4c3F)c12 (stereo partly drawn)"
quantity_name = "DC50"
observed_value = "< 10 nM"

[[record]]
compound = "CCc1c(F)ccc2cc(O)cc(-c3ncc4c(N5CCC[C@@](C)(O)C5)nc(OC[C@@]56CCCN5C(COCCCN5CCC(c7ccc8c(c7)n(C)c(=O)n8C7CCC(=O)NC7=O)CC5)CC6)nc4c3F)c12 (stereo partly drawn)"
quantity_name = "DC50"
observed_value = "> 100 nM"


Task: For the compound C[C@H]1CN(CCOCCOc2ccc3c(c2)n(C)c(=O)n3C2CCC(=O)NC2=O)CCCN1c1nccc(-c2noc([C@@]3(C)CCCc4sc(N)c(C#N)c43)n2)n1 (stereo partly drawn) , give its reported DC50.
Output: > 100 nM

Task: Please look at this compound and report its DC50: C#Cc1c(F)ccc2cc(O)cc(-c3ncc4c(N5CCC[C@@](C)(O)C5)nc(OC[C@@]56CCCN5[C@H](COC(=O)N5CCC7(CCC(N8CCC(c9ccc%10c(c9)n(C)c(=O)n%10C9CCC(=O)NC9=O)CC8)CC7)CC5)CC6)nc4c3F)c12 (stereo partly drawn)
Output: < 10 nM

Task: Fill in reported DC50 for this entry: C#Cc1c(F)ccc2cc(O)cc(-c3ccc4c(N5CCC[C@@](C)(O)C5)nc(OCC5(CN6CCC(CN7CCC(c8ccc9c(c8)n(C)c(=O)n9C8CCC(=O)NC8=O)CC7)CC6)CC5)nc4c3F)c12 (stereo partly drawn)
Output: < 10 nM

Task: For the compound C[C@H]1CN(CCOCCOCCOc2ccc3c(c2)n(C)c(=O)n3C2CCC(=O)NC2=O)CCCN1c1nccc(-c2noc([C@@]3(C)CCCc4sc(N)c(C#N)c43)n2)n1 (stereo partly drawn) , give its reported DC50.
Output: > 100 nM

* * *

- Target or system: KRAS G12D (Homo sapiens, UniProt P01116, G12D)
- Construct: AsPc-1-KRAS (G12D)-HiBit-KI cell (Pharmaron); host or cells: AsPc-1-KRAS (G12D)-HiBit-KI cells (HiBiT knock-in at the endogenous KRAS locus)
- Experiment: KRAS G12D HiBit assay
- Format: cell-based
- Condition parameters: AsPc-1-KRAS (G12D)-HiBit-KI cell, compound treatment for 24 hours, absolute DC50; class symbols
Quantity name: DC50

[[record]]
compound = "C#Cc1c(F)ccc2cc(O)cc(-c3ncc4c(N5CCC[C@@](C)(O)C5)nc(OC[C@@]56CCCN5[C@H](COC(=O)N5CCC(CC#Cc7cccc8c7n(C)c(=O)n8C7CCC(=O)NC7=O)CC5)CC6)nc4c3F)c12 (stereo partly shown) [Compound 374]"
target_or_system = "KRAS G12D (Homo sapiens, UniProt P01116, G12D)"
quantity_name = "DC50"
observed_value = "100 to 300 nM"

[[record]]
compound = "C#Cc1c(F)ccc2cc(O)cc(-c3ncc4c(N5CCC[C@@](C)(O)C5)nc(OCC5(CN6CCC(N7CCC(c8cccc9c(C%10CCC(=O)NC%10=O)nn(C)c89)CC7)CC6)CC5)nc4c3F)c12 (stereo partly shown) [Compound 77]"
target_or_system = "KRAS G12D (Homo sapiens, UniProt P01116, G12D)"
quantity_name = "DC50"
observed_value = "< 100 nM"

[[record]]
compound = "CCc1c(F)ccc2cc(O)cc(-c3ncc4c(N5CCC[C@@](C)(O)C5)nc(OC[C@@]56CCCN5[C@H](COC(=O)N5CCC(C#CC7CCN(c8ccc9c(c8)n(C)c(=O)n9C8CCC(=O)NC8=O)CC7)CC5)CC6)nc4c3F)c12 (stereo partly shown) [Compound 500]"
target_or_system = "KRAS G12D (Homo sapiens, UniProt P01116, G12D)"
quantity_name = "DC50"
observed_value = "< 100 nM"


We now examine a further compound.
Task: Write down DC50 measured for item CCc1c(F)ccc2cc(O)cc(-c3ncc4c(N5CCC[C@@](C)(O)C5)nc(OC[C@@]56CCCN5[C@H](COC(=O)N5CCC(CN7CCN(c8ccc9c(c8)n(C)c(=O)n9C8CCC(=O)NC8=O)CC7)CC5)CC6)nc4c3F)c12 (stereo partly shown) [Compound 95]
Output: < 100 nM
